# protocol-text: Rodent pharmacokinetic study
# Type: in vivo
# conditions: Wistar, plasma; Wister rat/Male, 5 mg/kg, Per-Oral
# Method: Rodent Pharmacokinetic Study Three to five animals were housed in each cage. Animals were kept fasted over night and maintained on a 12 hours light/dark cycle. […] At each time point blood was collected by jugular vein. […] The concentrations of the NCE compound in plasma were determined using LC-MS/MS method. […] Pharmacokinetic parameters Cmax, Tmax, AUCt, T1/2 and Bioavailability were calculated by non-compartmental model using software WinNonlin version 5.0.1.
Measured half-life of individual entries

compound: CNCC1CC2CC2N1c1cncnc1.O=C(O)/C=C/C(=O)O (stereo not shown) [Example 21]
half-life: 1.3 h
--
compound: NCC1CC2CC2N1C(=O)c1ccco1.O=C(O)C(O)C(O)C(=O)O (stereo not shown) [Example 35]
half-life: 1.49 h
--
compound: CNCC1CC2CC2N1c1ccc(C(F)(F)F)nc1.O=C(O)/C=C/C(=O)O (stereo not shown) [Example 23]
half-life: 5.12 h
--
compound: NCC1CC2CC2N1c1cncnc1.O=C(O)/C=C/C(=O)O (stereo not shown) [Example 22]
half-life: 1.63 h

Data origin: patent US8653071B2
